Experiment summary: Clearance in Sprague-Dawley rat at 5 mg/kg, po or 0.5 mg/kg, iv measured up to 24 hrs by HPLC-MS/MS analysis
Format: ADME, organism-based
Measurement setup: in vivo
Positions of bridges follow the written chain, without caps; N, C: chain ends. Non-standard residues stand in square brackets, D forms with d. Residues, ends and D or L forms follow the SMILES beside them. NMeF = CN[C@@H](Cc1ccccc1)C(=O)O; NMeNle = CCCC[C@H](NC)C(=O)O; Nle = CCCC[C@H](N)C(=O)O
Endpoint label: clearance (mL/min/kg)
Numbers only here, please. The scale is mL/min/kg.

Compound: CCCC[C@@H]1NC(=O)[C@H](Cc2ccccc2)N(C)C(=O)[C@@H]2CCCN2C(=O)[C@H](CCCC)N(C)C(=O)[C@H](Cc2ccccc2)NC(=O)CSC[C@@H](C(=O)NC)NC(=O)[C@H](CCCC)N(C)C1=O ({CH2CO}-F[NMeNle]P[NMeF][Nle][NMeNle]C-NHMe; thioether N-7)
clearance (mL/min/kg): 19

Field: next compound
# clearance lookup, item CCCC[C@@H]1NC(=O)C2CCCN2C(=O)[C@H](CCCC)NC(=O)[C@H](Cc2ccccc2)NC(=O)CSC[C@H](C(=O)NC)NC(=O)[C@H](CCCC)NC1=O (some centres not stated)
222
